- run_description: UV-Vis absorption spectra in MeOH
- Type: physicochemical
# λabs Qy (0-0) per record follows
Numbers only here, please. The scale is nm.

Worked examples, 2 molecules total:
mol: CC(=O)Nc1ccc(-c2c3nc(c(-c4ccc[n+]([O-])c4)c4ccc([nH]4)c(-c4ccc[n+]([O-])c4)c4nc(c(-c5ccc[n+]([O-])c5)c5ccc2[nH]5)C=C4)C=C3)cc1
value_reported: 545
//
mol: CCCCCCCCCCCCCC(=O)Nc1ccc(-c2c3nc(c(-c4ccc[n+]([O-])c4)c4ccc([nH]4)c(-c4ccc[n+]([O-])c4)c4nc(c(-c5ccc[n+]([O-])c5)c5ccc2[nH]5)C=C4)C=C3)cc1
value_reported: 547

Challenge: Record request: λabs Qy (0-0) value, item `CCCCCCCCCC(=O)Nc1ccc(-c2c3nc(c(-c4ccc[n+]([O-])c4)c4ccc([nH]4)c(-c4ccc[n+]([O-])c4)c4nc(c(-c5ccc[n+]([O-])c5)c5ccc2[nH]5)C=C4)C=C3)cc1`
Response given: 548

Challenge: Try this molecule next: `CCCCCCCCCCCCCCCCCC(=O)Nc1ccc(-c2c3nc(c(-c4ccc[n+]([O-])c4)c4ccc([nH]4)c(-c4ccc[n+]([O-])c4)c4nc(c(-c5ccc[n+]([O-])c5)c5ccc2[nH]5)C=C4)C=C3)cc1`
Response given: 547

Where do these numbers come from? They come from paper PMC12382614.
